# assay_info: Stability in TPGS/PG over 22 h
# Type: physicochemical
# details: TPGS/PG, ambient temperature, 11 h
endpoint_label: Amount of compound (mg/mL)
Answers are plain numbers, in mg/mL.

Data request: What does the record list as Amount of compound for CCCCC(CC)COC(=O)Oc1cc(/C=C(\C#N)C(=O)N(CC)CC)cc([N+](=O)[O-])c1O (stereo not shown) ?
Data returned: 1.16

Data request: How about CCCC(C)OC(=O)Oc1cc(/C=C(\C#N)C(=O)N(CC)CC)cc([N+](=O)[O-])c1O (stereo not shown) ?
Data returned: 1.16

Data request: Please answer likewise for CCN(CC)C(=O)/C(C#N)=C/c1cc(OC(=O)OCC2CCCCC2)c(O)c([N+](=O)[O-])c1
Data returned: 1.35

Next compound, Amount of compound to be filled in.
Data request: Would you mind telling me what Amount of compound value was observed for CCCCCCCCOC(=O)Oc1cc(/C=C(\C#N)C(=O)N(CC)CC)cc([N+](=O)[O-])c1O ?
Data returned: 1.40
